- tested-target: Lysosomal acid glucosylceramidase (Homo sapiens) (UniProt P04062)
- Sequence (P04062 whole entry, looked up): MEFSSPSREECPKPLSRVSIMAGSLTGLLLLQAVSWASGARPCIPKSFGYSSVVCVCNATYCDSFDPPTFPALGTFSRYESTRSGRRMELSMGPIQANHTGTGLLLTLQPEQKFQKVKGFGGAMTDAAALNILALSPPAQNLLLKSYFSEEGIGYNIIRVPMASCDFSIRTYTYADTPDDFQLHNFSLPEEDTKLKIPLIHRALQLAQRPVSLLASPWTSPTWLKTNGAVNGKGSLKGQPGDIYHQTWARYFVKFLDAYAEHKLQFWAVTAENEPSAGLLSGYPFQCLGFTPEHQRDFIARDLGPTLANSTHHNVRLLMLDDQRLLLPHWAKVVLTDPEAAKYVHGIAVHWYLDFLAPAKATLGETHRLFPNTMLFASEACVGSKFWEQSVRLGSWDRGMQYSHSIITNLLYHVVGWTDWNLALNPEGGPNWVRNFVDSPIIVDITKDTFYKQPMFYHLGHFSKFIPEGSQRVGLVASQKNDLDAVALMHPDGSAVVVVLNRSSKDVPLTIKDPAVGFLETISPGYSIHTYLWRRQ
- assay-remarks: Glucocerebrosidase-p2 (AID 348); further: potency means the concentration at half of the fitted maximal effect
- condition-notes: purified GBA, blue fluorogenic substrate, 40 min
Activity calls are given as the source filed them. No stated cut-off is given here; in the data, active means potency below about 10 µM; inactive means the rest.
Answer with one of the outcomes given here: 1 (yes) (active), 0 (no) (inactive)

Lab log entry: `COc1cccc(Cn2c(=O)c(-c3cccs3)nc3cnc(N(C)C)nc32)c1` — outcome as called in the assay? 0 (no)

Lab log entry: `Cn1cc(-c2nc3cnc(Oc4cccc(Cl)c4)nc3n(CCC#N)c2=O)c2ccccc21` — outcome as called in the assay? 0 (no)

Lab log entry: `Cc1nc2cnc(N(C)C)nc2n(CCC#N)c1=O` — outcome as called in the assay? 0 (no)

Lab log entry: `COc1ccc(NC(=O)N2CCCC3(CCN(S(C)(=O)=O)CC3)C2)cc1` — outcome as called in the assay? 0 (no)

Next:
Lab log entry: `CS(=O)(=O)N1CCC2(CCN(c3cccc(-c4ccccc4)c3)CC2)CC1` — outcome as called in the assay? 0 (no)

Lab log entry: `Cc1noc(C)c1-c1cc(NC2CC2)ncn1` — outcome as called in the assay? 0 (no)

Lab log entry: `Cc1cccc(CNc2ccnc(-c3cccnc3)n2)c1` — outcome as called in the assay? 0 (no)

Lab log entry: `CCNc1ncc2nc(-c3ccccc3)c(=O)n(C[C@H]3CCCO3)c2n1` — outcome as called in the assay? 0 (no)

Lab log entry: `O=c1c(-c2cc(F)cc(F)c2)nc2cnc(Nc3ccccc3)nc2n1C[C@H]1CCCO1` — outcome as called in the assay? 0 (no)

Lab log entry: `CN1CCN(c2cc(-c3ccoc3)ncn2)CC1` — outcome as called in the assay? 0 (no)

Lab log entry: `COc1ccc(-c2nc3cnc(N4CCN(C)CC4)nc3n(Cc3cccc(OC)c3)c2=O)cc1` — outcome as called in the assay? 0 (no)

Lab log entry: `COC(=O)N1CCC[C@@]2(CCN(C(=O)Nc3cccc(C#N)c3)C2)C1` — outcome as called in the assay? 0 (no)

Lab log entry: `Cc1nc2cnc(N3CCN(C)CC3)nc2n(Cc2ccc(F)cc2)c1=O` — outcome as called in the assay? 0 (no)

Lab log entry: `COCCn1c(=O)c(-c2ccccc2)nc2cnc(Oc3ccc(OC)cc3)nc21` — outcome as called in the assay? 0 (no)

Lab log entry: `O=C(c1ccncc1)N1CCC[C@@]2(CCN(c3ccccn3)C2)C1` — outcome as called in the assay? 0 (no)

Lab log entry: `N#Cc1ccccc1-c1ccc2ncnc(N3CCNCC3)c2c1` — outcome as called in the assay? 0 (no)

Lab log entry: `O=C(c1csnn1)N1CCC2(CC1)CN(C(c1ccccc1)c1ccccc1)C2` — outcome as called in the assay? 0 (no)

Lab log entry: `Cn1cccc1C(=O)N1CCC2(CC1)CN(C(=O)Nc1ccccc1)C2` — outcome as called in the assay? 0 (no)

Lab log entry: `CN1CCN(c2ncc3nc(-c4ccccc4)c(=O)n(-c4ccccc4)c3n2)CC1` — outcome as called in the assay? 0 (no)

Lab log entry: `COCCNc1ncnc2ccc(-c3ccc(C(=O)N(C)C)cc3)cc12` — outcome as called in the assay? 0 (no)

Lab log entry: `CN(C)c1ccc(-c2nc(N(C)Cc3ccco3)c3ccccc3n2)cc1` — outcome as called in the assay? 1 (yes)

Lab log entry: `CCNc1ncc2nc(-c3cc(F)cc(F)c3)c(=O)n(C[C@H]3CCCO3)c2n1` — outcome as called in the assay? 0 (no)

Lab log entry: `CNc1ncncc1-c1c(C)noc1C` — outcome as called in the assay? 0 (no)

Lab log entry: `COc1ccc(NC(=O)N2CC3(CCN(S(C)(=O)=O)CC3)C2)cc1` — outcome as called in the assay? 0 (no)

###

- tested-target: Glucocorticoid receptor (Homo sapiens) (UniProt P04150)
- Sequence (P04150 whole entry, looked up): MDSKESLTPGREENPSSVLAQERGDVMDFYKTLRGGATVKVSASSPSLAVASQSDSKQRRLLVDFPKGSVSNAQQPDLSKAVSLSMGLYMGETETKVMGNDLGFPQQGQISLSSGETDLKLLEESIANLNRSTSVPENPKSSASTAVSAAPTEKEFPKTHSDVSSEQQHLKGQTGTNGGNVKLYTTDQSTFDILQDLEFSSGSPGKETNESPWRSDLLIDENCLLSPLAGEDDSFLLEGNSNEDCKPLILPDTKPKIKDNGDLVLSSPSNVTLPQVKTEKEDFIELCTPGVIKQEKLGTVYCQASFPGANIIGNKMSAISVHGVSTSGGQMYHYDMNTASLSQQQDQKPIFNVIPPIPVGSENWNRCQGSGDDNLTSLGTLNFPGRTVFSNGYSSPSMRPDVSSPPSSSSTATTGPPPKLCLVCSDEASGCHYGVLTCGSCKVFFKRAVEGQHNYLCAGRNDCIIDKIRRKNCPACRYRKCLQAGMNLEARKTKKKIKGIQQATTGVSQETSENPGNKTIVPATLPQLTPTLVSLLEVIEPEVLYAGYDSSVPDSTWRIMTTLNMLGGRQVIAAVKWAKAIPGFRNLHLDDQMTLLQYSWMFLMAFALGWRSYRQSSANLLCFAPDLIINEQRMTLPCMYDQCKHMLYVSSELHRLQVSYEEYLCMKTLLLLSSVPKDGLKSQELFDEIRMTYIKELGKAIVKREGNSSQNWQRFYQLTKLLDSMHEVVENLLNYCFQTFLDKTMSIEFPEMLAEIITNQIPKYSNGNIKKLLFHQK
- assay-remarks: GR-GFP Redistribution (AID 450); further: potency means the concentration at half of the fitted maximal effect
- condition-notes: U2OS GR-GFP nuclear translocation, laser cytometry, 2 h
- Procedure: NIH Molecular Libraries Screening Centers Network [MLSCN] NIH Chemical Genomics Center [NCGC] […] GR-GFP U2OS cells were maintained in DMEM with Glutamax and high glucose, 1% v/v penicillin-streptomycin, and 0.5 mg/mL Geneticin. […] The plates were read by the Acumen Explorer using a 1 x 8 um scan of the whole well area. PI fluorescence triggered the collection of PI and GFP signals. […]
Active and inactive are the calls of the source.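 How the source made its calls: active means compounds whose dose series gives a full or clear partial fitted curve of increased nuclear translocation; inconclusive means weak partial curve or effect only at the top dose; inactive means no dose-dependent translocation response.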
observed-property: Potency

Recorded results for 5 compounds are shown here.
Determine its reported Potency: `COc1ccc(-c2nc3cnc(N4CCN(C)CC4)nc3n(Cc3cccc(OC)c3)c2=O)cc1` > 9.22 µM (inactive)

Determine its reported Potency: `N#Cc1ccccc1-c1nc(NCCN2CCOCC2)c2ccccc2n1` > 46 µM (inactive)

Determine its reported Potency: `c1cncc(CNc2cc(-c3ccc4c(c3)OCO4)ncn2)c1` > 46 µM (inactive)

Determine its reported Potency: `Cc1noc(C)c1-c1cc(NCc2ccccc2)ncn1` > 46 µM (inactive)

Determine its reported Potency: `CN(C)c1ccc(-c2nccc(NCCN3CCOCC3)n2)cc1` > 46 µM (inactive)

Next:
Determine its reported Potency: `CN(C)C(=O)c1ccc(-c2cc(NCc3cccnc3)ncn2)cc1` > 46 µM (inactive)

Determine its reported Potency: `COc1ccc(-c2nc3cnc(N4CCNCC4)nc3n(Cc3cccs3)c2=O)cc1` > 46 µM (inactive)

Determine its reported Potency: `COCCn1c(=O)c(CCc2ccccc2)nc2cnc(Nc3cccc(OC)c3)nc21` > 9.22 µM (inactive)

Determine its reported Potency: `COc1ccc(CNc2cc(-c3ccccc3Cl)ncn2)c(OC)c1` > 46 µM (inactive)

Determine its reported Potency: `COc1ncc2nc(-c3cccs3)c(=O)n(-c3ccccc3)c2n1` > 9.22 µM (inactive)

Determine its reported Potency: `COc1cccc(Cn2c(=O)c(-c3cc(F)cc(F)c3)nc3cnc(N(C)C)nc32)c1` > 9.22 µM (inactive)

###

- tested-target: Dual specificity protein kinase CLK4 (Homo sapiens)
- assay-remarks: qHTS Assay for Inhibitors of CDC-like Kinase 4 (ADP-FP Assay) (AID 1795); further: nearly all actives have a fitted effect of over 60% in size
- condition-notes: Transcreener ADP fluorescence polarization; series mostly up to 50 µM
- Procedure: NIH Molecular Libraries Probe Production Centers Network [MLPCN] NIH Chemical Genomics Center [NCGC] MLPCN Grant: 1R03MH084827-01 Assay Submitter (PI): Tom Misteli NCGC Assay Overview: Clk4 (Invitrogen cat # PV3839) was assayed using ATP and the RS repeat peptide (AnaSpec cat # 61722) as substrates using Transcreener (trade mark), a competitive fluorescence polarization (FP) assay. […] The amount of ADP produced can then be calculated using a calibration curve. […]
Records with an inconclusive call do not appear. Active and inactive are the calls of the source. Calls come from the whole dose curve; as a rule, active = well fitted inhibition curve with a large enough effect; inconclusive = small, poorly fitted or top-dose-only effect; inactive = flat fitted curve, though single readings scatter.
Answer with one of the outcomes given here: YES for active, NO for inactive

The following compounds have reported results that may help.
Lab log entry: `COc1cccc(Cn2c(=O)c(-c3cc(F)cc(F)c3)nc3cnc(N(C)C)nc32)c1` — outcome as called in the assay? NO

Lab log entry: `COc1ccccc1-c1ccc2ncnc(NC3CCNCC3)c2c1` — outcome as called in the assay? NO

Lab log entry: `CCNc1ncc2nc(-c3cn(C)c4ccccc34)c(=O)n(-c3ccccc3)c2n1` — outcome as called in the assay? NO

Lab log entry: `Cc1ccccc1-c1nccc(NCCN2CCOCC2)n1` — outcome as called in the assay? NO

Lab log entry: `COc1ccc(-n2c(=O)c(-c3cccs3)nc3cnc(N4CCOCC4)nc32)cc1` — outcome as called in the assay? NO

Next:
Lab log entry: `COc1ccc(CNc2ncnc3ccc(-c4ccccc4OC)cc23)c(OC)c1` — outcome as called in the assay? NO

Lab log entry: `CN(C)c1ncc2ncc(=O)n(C[C@H]3CCCO3)c2n1` — outcome as called in the assay? NO

Lab log entry: `COc1cccc(-c2ccc3ncnc(NCc4cccnc4)c3c2)c1` — outcome as called in the assay? YES

###

- assay-remarks: qHTS Assay for Lipid Storage Modulators (AID 1519); further: on the % scale 0 is the no-effect control and ±100 the full control effect
- condition-notes: Drosophila S3 cells, BODIPY lipid droplet/cell ratio, laser cytometry; at 57.5 µM (top of the series); cells loaded with oleic acid
Inconclusive results are not listed. Activity calls are given as the source filed them. Calls follow the shape of the full dose curve.
observed-property: activity change, negative = inhibition

Determine its reported activity change, negative = inhibition: `CCNc1ncc2nc(-c3cn(C)c4ccccc34)c(=O)n(Cc3cccc(OC)c3)c2n1` 2.75% (inactive)

Next:
Determine its reported activity change, negative = inhibition: `CC(C)CN1CC[C@@]2(CCCN(S(=O)(=O)c3ccccc3)C2)C1` 4.19% (inactive)

Determine its reported activity change, negative = inhibition: `COCCNc1nc(-c2ccccc2CN(C)C)nc2ccccc12` 3.16% (inactive)

Determine its reported activity change, negative = inhibition: `COc1ncc2nc(-c3cccs3)c(=O)n(-c3ccccc3)c2n1` -3.04% (inactive)

Determine its reported activity change, negative = inhibition: `COc1ccc(CNc2ncnc3ccc(-c4cccnc4)cc23)c(OC)c1` -5.09% (inactive)

Determine its reported activity change, negative = inhibition: `FC(F)(F)c1ccccc1-c1cc(N2CCNCC2)ncn1` 9.89% (inactive)
